target_entity: T1, recombinant human IgE (human, UniProt P01854-1 1-428)
T1 construct: made in-house (ALK); preloaded on immobilised FcεRIα in the displacement ELISA
experiment: IgE-FcεRIα displacement ELISA
pEC50: −log10 of the molar value.
We use 8 as the dividing line for pEC50: on or above the line is Criterion met, below is Criterion not met.

Ask: State whether the measured pEC50 reaches 8, counting equality as reaching it, for B1A1(G4S)4 (bispecific antibody, two sdAbs linked by a peptide linker) QVQLQESGGGLVQTGGSLRLSCAVHGRTFSNTGMGWFRQAPGNERQFVAIISPSGTSTYYADSVKGRFTISRDPAKNTVYLQMNSLKMDDTAVYYCAASYGSNWSTLRHQRRNEYDAWGQGTQVAVSGGGGSGGGGSGGGGSGGGGSEVQLLESGGGLVQPGGSLRLSCAASGFTFGNYDMAWVRQAPGKRPEWVSSIDTGGDITHYADSVKGRFTISRDNAKNTLYLQMNSLRPEDTAVYWCATDEEYALGPNEFDYYGQGTLVTVS
Result: Criterion met

Ask: Could you verify whether the entry A1B3(G4S)4 (bispecific antibody) EVQLLESGGGLVQPGGSLRLSCAASGFTFGNYDMAWVRQAPGKRPEWVSSIDTGGDITHYADSVKGRFTISRDNAKNTLYLQMNSLRPEDTAVYWCATDEEYALGPNEFDYYGQGTLVTVSGGGGSGGGGSGGGGSGGGGSDVQLQESGGGLVQAGGSLRLSCAASGFIFRLAGMSWVRQAPGKGFEWVSGITMDGSTTNYADSVKGRFTISRDNSKNRLYLQMNSLKPEDTAVYYCARGAKGGYNDPRGQGTQVTVS shows pEC50 of no less than 8?
Result: Criterion not met

Ask: Is pEC50 for sdAb A1 (VHH, also called sdAb 026; IGE026) VHH: EVQLLESGGGLVQPGGSLRLSCAASGFTFGNYDMAWVRQAPGKRPEWVSSIDTGGDITHYADSVKGRFTISRDNAKNTLYLQMNSLRPEDTAVYWCATDEEYALGPNEFDYYGQGTLVTVSS at or above 8?
Result: Criterion not met

More entries:
Ask: Would you say B1A1(G4S)1 (bispecific antibody) QVQLQESGGGLVQTGGSLRLSCAVHGRTFSNTGMGWFRQAPGNERQFVAIISPSGTSTYYADSVKGRFTISRDPAKNTVYLQMNSLKMDDTAVYYCAASYGSNWSTLRHQRRNEYDAWGQGTQVAVSGGGGSEVQLLESGGGLVQPGGSLRLSCAASGFTFGNYDMAWVRQAPGKRPEWVSSIDTGGDITHYADSVKGRFTISRDNAKNTLYLQMNSLRPEDTAVYWCATDEEYALGPNEFDYYGQGTLVTVSS shows pEC50 at minimum 8?
Result: Criterion met

Ask: Determine whether measured pEC50 meets or exceeds 8 for B3A1(G4S)4 (bispecific antibody) DVQLQESGGGLVQAGGSLRLSCAASGFIFRLAGMSWVRQAPGKGFEWVSGITMDGSTTNYADSVKGRFTISRDNSKNRLYLQMNSLKPEDTAVYYCARGAKGGYNDPRGQGTQVTVSGGGGSGGGGSGGGGSGGGGSEVQLLESGGGLVQPGGSLRLSCAASGFTFGNYDMAWVRQAPGKRPEWVSSIDTGGDITHYADSVKGRFTISRDNAKNTLYLQMNSLRPEDTAVYWCATDEEYALGPNEFDYYGQGTLVTVS
Result: Criterion met
